Where do the numbers come from? From ChEMBL document CHEMBL1151876.

pIC50: −log10 of the molar value.
Assay read-out pIC50; system under study: DNA (cytosine-5)-methyltransferase 1 (Homo sapiens).
Sequence (P26358 whole entry): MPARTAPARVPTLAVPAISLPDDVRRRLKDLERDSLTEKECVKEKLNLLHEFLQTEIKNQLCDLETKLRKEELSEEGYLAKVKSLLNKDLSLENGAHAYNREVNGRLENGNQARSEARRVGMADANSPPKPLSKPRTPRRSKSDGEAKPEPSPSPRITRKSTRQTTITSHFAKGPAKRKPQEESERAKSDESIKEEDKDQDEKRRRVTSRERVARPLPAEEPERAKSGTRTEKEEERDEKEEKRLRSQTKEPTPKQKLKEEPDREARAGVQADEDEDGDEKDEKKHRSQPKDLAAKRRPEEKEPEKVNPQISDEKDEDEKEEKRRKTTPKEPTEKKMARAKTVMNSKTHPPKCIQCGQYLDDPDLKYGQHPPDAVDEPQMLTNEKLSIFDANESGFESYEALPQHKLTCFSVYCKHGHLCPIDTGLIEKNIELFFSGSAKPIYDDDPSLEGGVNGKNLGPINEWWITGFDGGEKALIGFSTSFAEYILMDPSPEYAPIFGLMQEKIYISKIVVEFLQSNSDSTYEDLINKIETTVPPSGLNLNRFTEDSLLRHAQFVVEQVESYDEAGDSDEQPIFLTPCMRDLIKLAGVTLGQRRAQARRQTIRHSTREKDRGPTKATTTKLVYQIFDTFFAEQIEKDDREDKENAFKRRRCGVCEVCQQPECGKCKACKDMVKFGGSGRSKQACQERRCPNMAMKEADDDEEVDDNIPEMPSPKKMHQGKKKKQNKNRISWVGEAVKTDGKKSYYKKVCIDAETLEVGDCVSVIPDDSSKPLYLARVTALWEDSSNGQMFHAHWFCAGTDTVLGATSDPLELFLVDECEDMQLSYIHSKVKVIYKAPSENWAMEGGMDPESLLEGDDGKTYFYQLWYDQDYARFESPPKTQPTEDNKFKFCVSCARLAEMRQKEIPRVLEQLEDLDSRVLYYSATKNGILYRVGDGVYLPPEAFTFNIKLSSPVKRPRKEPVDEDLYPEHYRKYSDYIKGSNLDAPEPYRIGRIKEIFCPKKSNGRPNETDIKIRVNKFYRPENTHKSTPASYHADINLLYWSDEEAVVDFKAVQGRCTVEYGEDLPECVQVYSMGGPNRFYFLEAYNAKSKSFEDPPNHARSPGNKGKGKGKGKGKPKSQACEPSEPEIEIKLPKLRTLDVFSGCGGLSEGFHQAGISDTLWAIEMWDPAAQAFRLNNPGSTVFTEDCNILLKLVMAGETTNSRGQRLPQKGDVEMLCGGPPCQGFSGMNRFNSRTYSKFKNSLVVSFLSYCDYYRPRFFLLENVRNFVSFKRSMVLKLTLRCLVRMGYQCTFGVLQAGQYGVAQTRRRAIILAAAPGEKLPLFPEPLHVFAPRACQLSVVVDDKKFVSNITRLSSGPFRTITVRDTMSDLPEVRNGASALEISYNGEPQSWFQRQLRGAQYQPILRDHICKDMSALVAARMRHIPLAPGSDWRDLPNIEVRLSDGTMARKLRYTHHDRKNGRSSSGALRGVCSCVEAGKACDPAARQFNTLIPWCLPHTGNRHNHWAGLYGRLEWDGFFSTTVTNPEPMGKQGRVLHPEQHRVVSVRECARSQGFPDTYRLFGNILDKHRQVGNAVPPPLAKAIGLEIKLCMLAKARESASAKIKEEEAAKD

Consider the following items and state reported pIC50 for each.
1. Nc1ncnc2c1ncn2[C@@H]1O[C@H](CS[C@@H]2CCN[C@H](C(=O)O)C2)[C@@H](O)[C@H]1O
2. NCCCSC[C@H]1O[C@@H](n2cnc3c(N)ncnc32)[C@H](O)[C@@H]1O
3. CN1C[C@@H](SC[C@H]2O[C@@H](n3cnc4c(N)ncnc43)[C@H](O)[C@@H]2O)C[C@H]1C(=O)O
4. CN1CC[C@@H](SC[C@H]2O[C@@H](n3cnc4c(N)ncnc43)[C@H](O)[C@@H]2O)C1

1: < 4.00; 2: < 4.35; 3: < 4.00; 4: < 5.00
